targetEntity: T1, Nrd1 CID I130N (S. cerevisiae, UniProt P53617 1-153, I130N)
T1 construct: the construct for anisotropy is made as described previously (Kubicek et al, 2012); also called CID(I130N)-His6; source: recombinant, produced and purified as described previously (Kubicek et al, 2012); plasmid with T7 promoter
T1 sequence (looked up): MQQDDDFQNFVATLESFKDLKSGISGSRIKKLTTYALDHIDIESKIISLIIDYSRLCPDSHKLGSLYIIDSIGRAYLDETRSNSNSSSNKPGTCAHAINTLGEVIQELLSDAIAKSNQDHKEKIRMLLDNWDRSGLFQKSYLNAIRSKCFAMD
protocolNotes: fluorescence polarisation; fluorescence anisotropy, equilibrium binding of Nrd1 CID variants to FAM-labelled NIM peptides; 10°C, 50 mM Na2HPO4, 100 mM NaCl, pH 8; 1:1 model with non-specific binding (DynaFit)
testParameters: both partners purified
Ends that are not written are not given here. FAM = 5,6-carboxyfluorescein
readoutName: pKd
pKd here is simply -log10 of the concentration when that concentration is written in mol/L.

[in] Please report pKd for the following binder: {FAM}-DDDEDDYTPSIS (peptide, UniProt Q00416 2052-2063, looked up, Sen1, S. cerevisiae, fragment harbouring aa 2,052-2,063; source: synthetic peptide) [Sen1 NIM peptide (Sen1 aa 2,052-2,063)]
[out] 5.05
